# System: IGROV-1
# Procedure text: NCI tumour cell line growth inhibition, 48 h
Calls of active or inactive are those of the source. Rule as the data show it: active = GI50 up to about 1.1 µM and inactive = higher.
Readout: GI50

>>> readout_value("C1=C2C3=[N+](CCCC3)CC2Cc2sccc21 (configuration not stated)")
"> 100 µM (inactive)"

Input: Given CN(C)CCC(CCN(C)C)=NO , state its recorded GI50.
Output: > 100 µM (inactive)

Input: Also CCNc1ncnc2sc(SCc3ccccc3)nc12 ?
Output: > 100 µM (inactive)

Input: Note, next up: Fc1c(F)c(C(F)(F)F)c(F)c(F)c1N/N=C\c1c[nH]c2ccccc12
Output: 1.26 µM (inactive)

Input: Another compound: CC12C/C(=C\c3ccccc3)C(=O)C3C1CCCC32
Output: > 100 µM (inactive)

Input: What do we get for COC(=O)C(CCCCCCCC(C(=O)OC)C1=Nc2nnc(N)n2C1=O)C1=Nc2nnc(N)n2C1=O (configuration not stated) ?
Output: > 100 µM (inactive)

Input: For Cc1ccc(S(N)(=O)=O)cc1 [P-TOLUENESULFONAMIDE] then?
Output: > 1000 µM (inactive)

Input: Also C=C1C(C(=O)O)C1C(=O)O (configuration not stated) , if possible.
Output: > 100 µM (inactive)

Input: Next up: Cc1ccc(S(=O)(=O)N/N=c2/sc3ccccc3n2C)cc1
Output: > 100 µM (inactive)

###

# Tested on: ACHN
# Procedure text: NCI tumour cell line growth inhibition, 48 h
Activity calls are given as the source filed them. Rule as the data show it: active = GI50 up to about 1.1 µM and inactive = higher.
Readout: GI50

>>> readout_value("N=C(N)N/N=C(\\c1ccc(F)cc1)c1ccc(C(F)(F)F)cc1")
"0.611 µM (active)"

Please look at the following compound next.
Input: Any idea what GI50 was measured for O=[PH](O)c1ccsc1 ?
Output: > 100 µM (inactive)

###

Reported GI50 values follow for various compounds
# Test system: 786-0
# Procedure text: NCI tumour cell line growth inhibition, 48 h
The source made the active and inactive calls. No stated cut-off is given here; in the data, active = GI50 up to about 1.1 µM and inactive = higher.

Solved entries (count: 4):
>>> readout_value("CCN(CC)CCNc1ccc2nnn3c4ccc([N+](=O)[O-])cc4c(=O)c1c23")
"4.34 µM (inactive)"
>>> readout_value("C=C1C(=O)O[C@@H]2[C@H]1C[C@@H](O)[C@H](C)[C@@](O)(C(=O)/C=C/C)[C@H]2OC(=O)C(C)CC (stereo partly specified)")
"2.61 µM (inactive)"
>>> readout_value("O=C(NNC(=O)c1ccccc1Cl)c1ccccc1O")
"87.1 µM (inactive)"
>>> readout_value("Cc1ncc([N+](=O)[O-])n1CCN=[N+]=[N-]")
"> 100 µM (inactive)"

Input: What does the data say about its GI50? Entry: O=C(O)C1C2C=CC(C2)C1c1ccccc1 (stereo unspecified)
Output: > 100 µM (inactive)

Input: Check C/C=C(\C)C(=O)OC1/C=C(\C)CC/C=C(\C)CC2OC(=O)C(C)(OC(C)=O)C12 (stereo unspecified) too.
Output: > 100 µM (inactive)

Input: Also need C/C(=N\NC(C)(C)C)c1sc(-c2nc(C)c(/C(C)=N/NC(C)(C)C)s2)nc1C , thanks.
Output: > 100 µM (inactive)

###

# Test system: DU-145
# Procedure text: NCI tumour cell line growth inhibition, 48 h
Active and inactive are the calls of the source. Rule as the data show it: active = GI50 up to about 1.1 µM and inactive = higher.
Pick one and only one: true for active, false for inactive

>>> group("CCC(C)C1=C(O)[N+]2([O-])Oc3ccc(-c4c(O)c(O)c(-c5ccc(O)cc5)c(OC(C)=O)c4OC(C)=O)cc3OC2(C(C)CC)C(=O)N1O (stereo not given)")
"false"
>>> group("O=C1O/C(=C\\c2ccccc2)N(c2ccccc2)C1=O")
"false"
>>> group("O=C1C/C(=C\\c2ccccc2)C(=O)c2ccccc2N1")
"false"
>>> group("OB(O)c1ccccc1C#Cc1ccccc1B(O)O")
"false"
>>> group("Cc1ccc(S(N)(=O)=O)cc1 [P-TOLUENESULFONAMIDE]")
"false"
>>> group("CC1C2(C)OC(=N)C(C#N)(C(C)O2)C1(C#N)C#N (stereo not given)")
"false"

Input: Per the records of this test, what outcome belongs to COc1cc2c(c(OC)c1OC)-c1ccc(OC)c(=O)cc1C(NC(=O)CCCCCNc1ccc(N=[N+]=[N-])cc1[N+](=O)[O-])CC2 (stereo not given) ?
Output: true

Input: Further, for CC(C)(C)[Si](C)(C)OC1/C(=C/C#N)C(n2ccc(=O)[nH]c2=O)OC1CO (stereo not given) ?
Output: false

Input: Record: NC(=O)c1nnc2cc(F)c(F)cc2c1N
Output: false

Input: Then N#Cc1sc2nc3ccccc3n2c1N ?
Output: false

Input: Also check CN(C)c1ccc(C2ON=C(c3ccccc3)N2C23CC4CC(CC(C4)C2)C3)cc1 (stereo not given)
Output: false

Input: Next entry: Oc1ccc(C(c2ccc(O)cc2)c2ccc(O)cc2)cc1
Output: false

Input: Cool, now COc1ncc(C=C(C#N)C#N)c(OC)n1
Output: false

Input: Check CCN(CC)CCNc1c(OC)cc(C)c2sc3ccccc3c(=O)c12 too.
Output: false

Input: Consider next the molecule C[C@H](C(O)CC(=O)C(C)(C)O)[C@H]1CC[C@@]2(C)[C@@H]3CC[C@H]4C(C)(C)[C@@H](OC5OC(COC6OC(CO)C(O)C(O)C6O)C(O)C(O)C5O)CC[C@]4(C)C3=CC[C@]12C (stereo not given in full) in the same way.
Output: false

Input: What would you report for CC(=O)Nc1ccc(N2C(=O)/C(=C\c3cccc(Oc4ccccc4)c3)S(=O)(=O)C2c2ccccc2)cc1 (stereo not given) ?
Output: false

Input: Follow-up entry: Cc1nn(C(=O)Cc2ccccc2)c2c1C(c1ccccc1)SC(=N)N2 (stereo not given)
Output: false

Input: Next entry: O=c1[nH]/c(=C/c2ccc(OCc3ccccc3)cn2)c(=O)[nH]/c1=C/c1ccc(O)cc1
Output: true

Input: And what about the molecule CN(C)CCCNC(=O)c1cc(NC(=O)CCCn2c3ccccc3c3ccccc32)cn1C ?
Output: false

Input: Next record, please: O=c1c2ccc(Cl)cc2oc2c(CNc3ccc(S(=O)(=O)Nc4nccs4)cc3)cccc12
Output: false
